Collected cell count values appear next to each entry.
- assayOverview: viability loss with induced miR-34 in A549 – imaging, A549 dox-inducible miR-34, nuclei and caspase counts, primary screen (AID 1347080); further: test concentration not given here
- conditionLabel: A549 miR-34 inducible, Hoechst nuclei count, 48 h; measured here: total cells with miR-34 induction; stronger effect = lower value

compound: CCN(C)C(=O)Oc1cccc(C(C)N(C)C)c1 (centres undefined)
cell count: 8110
--
compound: Cc1cn(C2CC(O)C(CO)O2)c(=O)[nH]c1=O (centres undefined)
cell count: 7950
--
compound: C[C@]12C=CC(=O)C=C1CC[C@@H]1[C@H]2C(=O)C[C@@]2(C)[C@H]1CC[C@@]2(O)C(=O)CO
cell count: 7790
--
compound: CC1(C)[C@@H](O)CC[C@@]2(C)[C@H]1CC[C@]1(C)[C@H]2C(=O)C=C2[C@H]3C[C@@](C)(C(=O)O)CC[C@]3(C)CC[C@]21C
cell count: 7890
--
compound: C=CCC1C=C(C)CC(C)CC(OC)C2O[C@@](O)(C(=O)C(=O)N3CCCC[C@H]3C(=O)OC(C(C)=CC3CCC(O)C(OC)C3)C(C)C(O)CC1=O)C(C)CC2OC (some centres undefined)
cell count: 7870
--
compound: CC1OC(OC2C(Oc3cc(O)c4c(c3)OC(c3ccc(O)cc3)CC4=O)OC(CO)C(O)C2O)C(O)C(O)C1O (centres undefined)
cell count: 8310
--
compound: CC1(C)SC2C(NC(=O)C(C(=O)O)c3ccsc3)C(=O)N2C1C(=O)O (centres undefined)
cell count: 7330
--
compound: COc1ccc2c(c1)c(CC(=O)O)c(C)n2C(=O)c1ccccc1
cell count: 9380
--
compound: O=C1NC(=O)C(=Cc2ccc3c(c2)OC(F)(F)O3)S1
cell count: 8930
--
compound: N#CC(C#N)=C(N)/C(C#N)=C/c1ccc(O)cc1
cell count: 8590
--
compound: CC(O)[C@H]1C(=O)N2C(C(=O)OCOC(=O)C(C)(C)C)=C(SC3CN(C4=NCCS4)C3)C(C)[C@@H]12 (some centres undefined)
cell count: 8990
--
compound: O=C(CCSCc1ccco1)NNC(=O)N1Cc2ccccc2Oc2ccc(Cl)cc21
cell count: 7850
--
compound: C[N+](C)(C)CC=O
cell count: 10200
--
compound: O=C(NCCCc1ccccc1)NC1CCCCC1
cell count: 8240
--
compound: O=C(O)CCC(C(=O)O)N1C(=O)c2ccccc2C1=O (centres undefined)
cell count: 10300
--
compound: CC1(C)O[C@@H]2C[C@H]3[C@@H]4C[C@@H](F)C5=CC(=O)C=C[C@]5(C)[C@]4(F)C(O)C[C@]3(C)[C@@]2(C(=O)CO)O1 (some centres undefined)
cell count: 5980
--
compound: Nc1nonc1C(=Nc1ccc(F)c(Cl)c1)NO
cell count: 8500
--
compound: OCCOc1ccc(C(=C(CCCl)c2ccccc2)c2ccccc2)cc1
cell count: 9190
--
compound: COc1ccc(CC(N)C(=O)NC2C(CO)OC(n3cnc4c(N(C)C)ncnc43)C2O)cc1 (centres undefined)
cell count: 798
--
compound: COC(=O)/C=C/c1ccc(C(=O)NCC(=O)N[C@@H](CCC(=O)OC)C(=O)N[C@@H](CC(C)C)C(N)=O)cc1
cell count: 5510
--
compound: CCCCCCCCCCCCCCCC(=O)OC1C(SC)OC(C(NC(=O)C2CC(CCC)CN2C)C(C)Cl)C(O)C1O (centres undefined)
cell count: 9240
--
compound: NS(=O)(=O)c1ccc(C(=O)NCCn2cccn2)cc1
cell count: 9500
--
compound: CNCCC=C1c2ccccc2C=Cc2ccccc21
cell count: 6810
--
compound: O=c1cnn(C2OC(CO)C(O)C2O)c(=O)[nH]1 (centres undefined)
cell count: 1880

====

Collected cell count values appear next to each entry.
- assayOverview: viability loss with induced miR-34 in A549 – imaging, A549 dox-inducible miR-34, nuclei and caspase counts, primary screen (AID 1347080); further: test concentration not given here
- conditionLabel: A549 miR-34 inducible, Hoechst nuclei count, 48 h; measured here: total cells with miR-34 induction; stronger effect = lower value
Square brackets hold non-standard residues; d marks the D form. Peptide text beside a SMILES is read from it. Nle = CCCC[C@H](N)C(=O)O

compound: COC(=O)C1=C(C)NC(C)=C(C(=O)OC)C1c1cccc(NC(=O)NCCCN2CCC(c3cccc(OC)c3)CC2)c1
cell count: 2200
--
compound: CNC1(C)[C@H]2CC[C@H](C2)C1(C)C (some centres not stated)
cell count: 9940
--
compound: N[C@H](C(=O)O)[C@H](Cc1ccccc1)C(=O)O
cell count: 10400
--
compound: CC(=Cc1ccccc1)C=C1SC(=S)N(CC(=O)O)C1=O
cell count: 8290
--
compound: Nc1ncnc2c1c(I)cn2[C@@H]1O[C@H](CO)[C@H](O)C1O (some centres not stated)
cell count: 1250
--
compound: CCCC[C@@H](C=O)NC(=O)[C@H](CC(C)C)NC(=O)[C@H](CC(C)C)NC(C)=O (Ac-Leu-Leu-[Nle]-aldehyde)
cell count: 1540
--
compound: CCCCCCCCCCCCCCCC(=O)OCC(COP(=O)(O)O)OC(=O)CCCCCCCCCCCCCCC (configuration not stated)
cell count: 5850
--
compound: CCC(C)Nc1cc(C(=O)NC2CC3CCC(C2)N3c2ccc(C(=O)C3CC3)cn2)c(C)cc1C(N)=O (configuration not stated)
cell count: 2340
--
compound: COC1O[C@H]2O[C@@]3(C)CC[C@H]4[C@@H](C)CC[C@@H]([C@H]1C)[C@@]24OO3 (some centres not stated)
cell count: 7410
--
compound: C[C@@]1(c2nc3c(C(N)=O)cccc3[nH]2)CCCN1
cell count: 6840
--
compound: O=C(O)CC1CCCc2ccccc2C1O (configuration not stated)
cell count: 10700
--
compound: CCC(=O)[C@@]1(C)[C@H](C)C[C@H]2[C@@H]3CCC4=CC(=O)C=C[C@]4(C)[C@H]3[C@@H](O)C[C@@]21C
cell count: 7190
--
compound: C[C@]12C=CC(=O)C=C1CC[C@@H]1[C@H]2C(O)C[C@@]2(C)[C@H]1CC[C@@]2(O)C(=O)CO (some centres not stated)
cell count: 4970
--
compound: CNC(C)C(=O)NC(C(=O)N1CCCC1C(=O)Nc1snnc1-c1ccccc1)C1CCCCC1 (configuration not stated)
cell count: 8360
--
compound: C=C/C(C)=C/[C@@]1(C)SC(=O)C(C)=C1O
cell count: 10800
--
compound: NO
cell count: 10000
--
compound: CCC(=O)OCC(=O)[C@]1(OC(=O)CC)C(C)C[C@H]2[C@@H]3CCC4=CC(=O)C=C[C@]4(C)[C@]3(Cl)C(O)C[C@@]21C (some centres not stated)
cell count: 5950
--
compound: Nc1cc(Cl)c(NC2=NCCN2)c(Cl)c1
cell count: 11100
--
compound: NCC1OC(O[C@@H]2[C@H](O)C(OC3C(O)C(N)CC(N)C3OC3OC(CO)C(O)C(O)C3N)O[C@@H]2CO)C(N)C(O)C1O (some centres not stated)
cell count: 9490
--
compound: Cc1nc(N(C)C(=O)Cc2ccc(-c3ccccn3)cc2)sc1S(N)(=O)=O
cell count: 7530
--
compound: Cc1c(OCC(F)(F)F)ccnc1C[S@@](=O)c1nc2ccccc2[nH]1
cell count: 7200
--
compound: CN1CCN(C(=O)c2cc3cc(Cl)ccc3[nH]2)CC1
cell count: 8330
--
compound: C=Cc1c(C)c2cc3nc(cc4[nH]c(cc5nc(cc1[nH]2)C(C)=C5CCC(=O)O)c(CCC(=O)O)c4C)[C@@]1(C)C3=CC=C(C(=O)OC)C1C(=O)OC (some centres not stated)
cell count: 9050
--
compound: COc1cc(C=Cc2ccc(O)cc2)cc(OC)c1
cell count: 6760
--
compound: Cc1cccc(C)c1OCC(N)C(C)C (configuration not stated)
cell count: 11200
--
compound: C[C@H]1c2cccc(O)c2C(O)=C2C(=O)C3(O)C(O)=C(C(N)=O)C(=O)[C@@H](N(C)C)[C@@H]3[C@@H](O)[C@@H]21 (some centres not stated)
cell count: 4060
--
compound: COc1cc(CCc2cc(NC(=O)c3ccc(N4CC(C)NC(C)C4)cc3)n[nH]2)cc(OC)c1 (configuration not stated)
cell count: 4590
--
compound: N[C@H](CO)C(=O)O
cell count: 10300
--
compound: Clc1cnccn1
cell count: 9270
--
compound: O=C(NNc1nc2cc(F)ccc2n2cccc12)c1cnccn1
cell count: 2180
--
compound: COc1c2c(nc3ccccc13)OC(C(C)(O)CO)C2 (configuration not stated)
cell count: 8340
--
compound: CNc1nc(Nc2cn(C(C)(C)C#N)nc2C)ncc1C(F)(F)F
cell count: 7920

====

- assayOverview: galactose survival enhancers in mitochondrial complex I cybrids – cell-based, galactose medium, ATP luminescence, primary screen (AID 1645843);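 further: positive z means more ATP and so rescue of galactose-driven cybrid death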
- conditionLabel: complex I mutant cybrid cells, 72 h, stronger effect = higher value
Quick rule for you: z-score at -0.5 or higher means true, lower means false.

compound: O=c1[nH]cnc2c1CN=N2
assignedLabel: true
//
compound: N#Cc1cc([N+](=O)[O-])c2sc(C(N)=O)[n+]([O-])c2c1
assignedLabel: false
//
compound: CC(C)=CCC/C(C)=C/CNCCCc1ccncc1
assignedLabel: false
//
compound: Cc1cc(CN2CCOC(CN)C2)ccc1OC1(C(=O)O)CCSCC1 (configuration not stated)
assignedLabel: true
//
compound: COC(=O)c1ccc(=O)c2nc3/c(=C/O)c(O)cc(=O)c3[nH]c12
assignedLabel: false
//
compound: NS(=O)(=O)c1ccc(F)cc1
assignedLabel: true
//
compound: CN(C)Cc1cn(CC2CCN(C(=O)CC3CCCCCC3)CC2)nn1
assignedLabel: true
//
compound: CC1(C)CC(=O)c2sc(N3CCOCC3)nc2C1
assignedLabel: true
//
compound: Cc1ccc(-c2ccn(CC(=O)Nc3nn(C)c4ccccc34)n2)s1
assignedLabel: true
//
compound: O=C(CCc1ccncc1)NNC(=O)N1Cc2ccccc2Oc2ccc(Cl)cc21
assignedLabel: true
//
compound: Cc1cc(Cl)cc2c(=O)n(C(C)Cn3cccn3)cnc12 (configuration not stated)
assignedLabel: true
//
compound: Cc1cc(-c2cccc3cccnc23)nc(N)n1
assignedLabel: false
//
compound: CN1C(=O)CCC1c1cccnc1 (configuration not stated)
assignedLabel: true
//
compound: O[Si](CCCN1CCCCC1)(c1ccc(F)cc1)C1CCCCC1 (configuration not stated)
assignedLabel: false
//
compound: CCC(C)n1ncn(-c2ccc(N3CCN(c4ccc(OCC5CO[C@](Cn6cncn6)(c6ccc(Cl)cc6Cl)O5)cc4)CC3)cc2)c1=O (some centres not stated)
assignedLabel: false
//
compound: Nc1nc2[nH]c(=O)cnc2c(=O)[nH]1
assignedLabel: true
//
compound: O=C1CN(c2ncnc3sccc23)CCN1Cc1cccc(F)c1
assignedLabel: true
//
compound: C=CCNc1ncnc2ccc(Br)cc12
assignedLabel: false
//
compound: CCOC(=O)C1=C(C)NC(C)=C(C(=O)OCC)C1c1c(F)c(F)c(F)c(F)c1F
assignedLabel: true
//
compound: CCc1nc(NC(=O)NC(c2ccccc2)c2ccccc2)nn1C
assignedLabel: true
//
compound: c1cnn(-c2ccc(N3CCC(N4CCC4)CC3)cc2)c1
assignedLabel: true
